tested on: ragweed; experiment: Test C postemergence; format: in vivo, Ambrosia artemisiifolia; conditions: 125 g ai/ha, postemergence, 10 days; 0 to 100 scale, 0 no effect, 100 complete control
measurement label: Plant response rating, Ragweed

See these solved cases before continuing.
| molecule | assayed target | result |
| --- | --- | --- |
| COc1ccc(-n2cncn2)cc1C(=O)N1C[C@H](C)Oc2ccccc21 [Compound 228] | ragweed | 10 |
| COC[C@H]1CN(C(=O)c2cc(-n3cnc(C4CCC4)n3)ccc2OC)c2cccc(Cl)c2O1 [Compound 236] | ragweed | 80 |

Fill in reported Plant response rating, Ragweed for this entry: Cc1cc(-n2cnc(C(C)C)n2)cc(C(=O)N2C[C@H](C)Oc3c(Cl)cccc32)c1C [Compound 259]
20

Report measured Plant response rating, Ragweed; entry is CC(C)=C(C)c1ncn(-c2cccc(C(=O)N3C[C@H](C)Oc4c(C)cccc43)c2)n1 [Compound 262]
40

Determine its reported Plant response rating, Ragweed: C[C@H]1CN(C(=O)c2cc(-n3cnc(C4CCC4)n3)cc3c2OCCO3)c2cccc(Cl)c2O1 [Compound 157]
100

Give the measured Plant response rating, Ragweed for Cc1cccc2c1O[C@H](C)CN2C(=O)c1cccc(-c2ncn(C(C)C)n2)c1 [Compound 221]
0

Retrieve Plant response rating, Ragweed measured for CC(C)c1ncn(-c2cccc(C(=O)N3CC(C(F)(F)F)Oc4c(Cl)cccc43)c2)n1 (single isomer, unassigned) [Compound 289] and print it.
60

----------
tested on: blackgrass; test: Test A postemergence; assay type: in vivo, Alopecurus myosuroides; details: 500 g ai/ha, Postemergence; 0 to 100 scale
measurement label: Plant response rating, Blackgrass
Just the number, please, no unit attached.

| molecule smiles | measured number |
| --- | --- |
| C[C@H]1CN(C(=O)c2cc(-n3cncn3)ccc2C(F)(F)F)c2cccc(Cl)c2O1 | 70 |
| Cc1cccc2c1O[C@@H](C)CN2C(=O)c1cccc(-n2cnc(C(C)(C)C)n2)c1 | 80 |

Fill in Plant response rating, Blackgrass for record CC(C)c1ncn(-c2cccc(C(=O)N3C[C@H](C)Oc4c(Cl)cccc43)c2)n1
90

----------
system: barnyardgrass; experiment: Test C preemergence; format: in vivo, Echinochloa crusgalli; conditions: Test C, preemergence, 125 g ai/ha; 0 to 100 scale (0 no effect, 100 complete control)
measurement label: Barnyardgrass plant response rating
Enter the number alone.

| molecule | measured number |
| --- | --- |
| Cc1ccc(-n2cnc(C(C)C)n2)cc1C(=O)N1C[C@H](C)Oc2c1cccc2C(F)(F)F | 90 |
| CC(C)Oc1ncn(-c2cccc(C(=O)N3C[C@H](C)Oc4c(Cl)cccc43)c2)n1 | 0 |
| Cc1ccc(-n2cnc(C[S+](C)[O-])n2)cc1C(=O)N1C[C@H](C)Oc2c(Cl)cccc21 (stereo partly shown) | 40 |
| COc1cc(-n2cnc(C(C)C)n2)cc(C(=O)N2C[C@H](C)Oc3c(Cl)cccc32)c1OC | 10 |
| Cc1ccc(-n2cnc(C(C)(C)C)n2)cc1C(=O)N1CC(C(F)(F)F)Oc2c(Cl)cccc21 (single isomer, unassigned) | 60 |

// fetch Barnyardgrass plant response rating; item: Cc1ccc(-n2cnc(C(C)(C)O)n2)cc1C(=O)N1C[C@H](C)Oc2c(C)cccc21 ; system: barnyardgrass
100

// fetch Barnyardgrass plant response rating for Cc1ccc(-n2cnc(C(C)C)n2)cc1C(=O)N1CC(C(F)(F)F)Oc2c(Cl)cccc21 (single isomer, unassigned) ; system: barnyardgrass
100

----------
test system: kochia; experiment: Test C preemergence; assay type: in vivo, Bassia scoparia; settings: 500 g ai/ha, preemergence; 0 to 100 scale (0 no effect, 100 complete control)
Text: […]
measurement label: Kochia plant response rating
# print the numeric value only

These solved cases illustrate the format of a correct answer.
| compound | assayed target | Kochia plant response rating |
| --- | --- | --- |
| CC(C)c1ncn(-c2cc(C(=O)N3C[C@H](C)Oc4c(Cl)cccc43)cnn2)n1 | kochia | 100 |
| CCOCC1CN(C(=O)c2cc(-n3cnc(CC)n3)ccc2OC)c2cccc(Cl)c2O1 (centres unmarked) | kochia | 100 |
| Cc1ccc(-n2cnc(C(C)C)n2)cc1C(=O)N1CC(C(F)(F)F)Oc2c(Cl)cccc21 (single isomer, unassigned) | kochia | 60 |
| Cc1ccc(-n2cnc(CC#N)n2)cc1C(=O)N1C[C@H](C)Oc2c(Cl)cccc21 | kochia | 90 |
| Cc1cccc2c1O[C@@H](C)CN2C(=O)c1cccc(-n2nccn2)c1 | kochia | 0 |
| COC[C@H]1CN(C(=O)c2cc(-n3cnc(C(C)(C)C)n3)cc3c2OCCO3)c2cccc(Cl)c2O1 | kochia | 100 |
| COC[C@H]1CN(C(=O)c2cc(-n3cnc(C(C)(C)O)n3)ccc2OC)c2cccc(Cl)c2O1 | kochia | 100 |

Lab note: next compound to report on.
Kindly indicate its recorded Kochia plant response rating. Item: Cc1ccc(-n2cnc(C(C)(C)C#N)n2)cc1C(=O)N1C[C@H](C)Oc2c(Cl)cccc21
100

----------
tested on: galium; assay: Test C postemergence; assay type: in vivo, Galium aparine; details: 125 g ai/ha, postemergence, 10 days; 0 to 100 scale, 0 no effect, 100 complete control
Quick list: Plant response rating, Galium per entry.
Please reply with the value in numeric form only.

| compound | Plant response rating, Galium |
| --- | --- |
| CCc1ncn(-c2ccc(C)c(C(=O)N3CC(C(F)(F)F)Oc4c(Cl)cccc43)c2)n1 (single isomer, unassigned) [Compound 218] | 100 |
| Cc1cccc2c1O[C@@H](C)CN2C(=O)c1cccc(-n2nccn2)c1 [Compound 282] | 0 |
| COC[C@H]1CN(C(=O)c2cc(-n3cncn3)ccc2C)c2cccc(Cl)c2O1 [Compound 263] | 100 |
| Cc1ccc(-n2cnc(C3(C(F)(F)F)CCC3)n2)cc1C(=O)N1C[C@H](C)Oc2c(Cl)cccc21 [Compound 168] | 80 |
| COC[C@H]1CN(C(=O)c2cc(-n3cnc(C(C)(C)C)n3)ccc2OC)c2cccc(Cl)c2O1 [Compound 230] | 100 |

Supply recorded Plant response rating, Galium for C[C@H]1CN(C(=O)c2cc(-n3cncn3)cc3c2OCCO3)c2cccc(Cl)c2O1 [Compound 153] here.
90

Tell me its Plant response rating, Galium given CC(C)c1ncn(-c2ccc(S(=O)(=O)C(F)(F)F)c(C(=O)N3C[C@H](C)Oc4c(Cl)cccc43)c2)n1 [Compound 229] as the entry.
0

Consider the compound CCc1ncn(-c2cc(OC)cc(C(=O)N3C[C@H](C)Oc4c(Cl)cccc43)c2)n1 [Compound 164] and give its recorded Plant response rating, Galium.
100

State its Plant response rating, Galium: Cc1ccc(-n2cnc(C(C)C)n2)cc1C(=O)N1CC(C(F)(F)F)Oc2c(Cl)cccc21 (single isomer, unassigned) [Compound 292]
70

Give Plant response rating, Galium for COc1ccc(-n2cnc(C(C)C)n2)cc1C(=O)N1C[C@H](C)Oc2c(F)cccc21 [Compound 269]
90

----------
Parameter Plant response rating, Galium: see the listing below.
tested on: galium; experiment: Test C postemergence; assay type: in vivo, Galium aparine; conditions: 500 g ai/ha, postemergence, 10 days, 0 to 100 scale (0 no effect, 100 complete control)
Answer with the value's number alone.

| molecule | assayed target | Plant response rating, Galium |
| --- | --- | --- |
| Cc1cccc2c1OC(C(F)(F)F)CN2C(=O)c1ccnc(-n2cnc(C(C)C)n2)c1 (single isomer, unassigned) [Compound 328] | galium | 100 |
| CC(C)c1ncn(-c2ccc([S+](C)[O-])c(C(=O)N3C[C@H](C)Oc4c(Cl)cccc43)c2)n1 (stereo partly drawn) [Compound 394] | galium | 100 |
| CCOC[C@H]1CN(C(=O)c2cc(-n3cnc(C(C)C)n3)ccc2OC)c2cccc(Cl)c2O1 [Compound 341] | galium | 100 |
| COc1ccc(-n2cnc(C3CC3)n2)cc1C(=O)N1C[C@H](C)Oc2c(Cl)cccc21 [Compound 324] | galium | 100 |
| CCOC[C@H]1CN(C(=O)c2cc(-n3cnc(C(C)C)n3)cc3c2OCCO3)c2cccc(Cl)c2O1 [Compound 396] | galium | 100 |

Enter recorded Plant response rating, Galium with galium for Cc1cccc2c1O[C@@H](C)CN2C(=O)c1cc(-n2cnc(C(C)C)n2)cc2c1CCO2 [Compound 392] here.
100

Give galium Plant response rating, Galium for the following molecule: Cc1cccc2c1OC(C(F)(F)F)CN2C(=O)c1cccc(-n2cnc(C(C)C)n2)c1 (single isomer, unassigned) [Compound 303]
100

# lookup: galium Plant response rating, Galium, key = CCc1ncn(-c2cc(C(=O)N3CC(C(F)(F)F)Oc4c(C)cccc43)ccn2)n1 (stereo not drawn) [Compound 318]
100

GET Plant response rating, Galium where system = galium and item = CC(=O)c1ncn(-c2ccc(C)c(C(=O)N3C[C@H](C)Oc4c(Cl)cccc43)c2)n1 [Compound 360]
100

Print galium Plant response rating, Galium for CCOCC1CN(C(=O)c2cc(-n3cnc(C(C)(C)C)n3)ccc2OC)c2cccc(Cl)c2O1 (stereo not drawn) [Compound 379] .
100

Provide galium Plant response rating, Galium reading for CC(C)c1ncn(-c2cc(C(=O)N3CC(C(F)(F)F)Oc4c(Cl)cccc43)ccn2)n1 (single isomer, unassigned) [Compound 330] .
100

Report measured Plant response rating, Galium on galium; entry: CSc1ccc(-n2cnc(C(C)C)n2)cc1C(=O)N1C[C@H](C)Oc2c(Cl)cccc21 [Compound 391]
100

Tell me its Plant response rating, Galium on galium: C[C@H]1CN(C(=O)c2cc(-n3cncn3)cc(C(F)(F)F)c2)c2cccc(Cl)c2O1 [Compound 335]
50

Quote galium Plant response rating, Galium for entry CCOC[C@H]1CN(C(=O)c2cc(-n3cnc(CC)n3)cc3c2OCCO3)c2cccc(Cl)c2O1 [Compound 387] .
100
